Each entry below lists one item and its recorded log10(Ki) value.
- Target under test: T1, cruzipain (Trypanosoma cruzi, UniProt P25779 123-467)
- T1 construct: also called T. cruzi CP cruzipain; major cysteine peptidase of T. cruzi
- T1 sequence (P25779 123-467): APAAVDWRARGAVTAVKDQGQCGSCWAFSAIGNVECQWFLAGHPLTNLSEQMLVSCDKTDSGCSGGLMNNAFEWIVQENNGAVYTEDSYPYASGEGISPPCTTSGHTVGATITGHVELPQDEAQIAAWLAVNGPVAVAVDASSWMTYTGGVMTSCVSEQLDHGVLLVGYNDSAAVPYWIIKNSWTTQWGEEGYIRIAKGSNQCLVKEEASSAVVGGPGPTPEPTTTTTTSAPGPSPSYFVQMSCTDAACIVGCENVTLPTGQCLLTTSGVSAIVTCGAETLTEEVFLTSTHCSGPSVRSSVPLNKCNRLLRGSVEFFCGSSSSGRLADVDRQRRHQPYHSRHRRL
- Assay overview: enzyme inhibition kinetics (Ki for tight-binding inhibitors); peptidase incubated with different chagasin concentrations for 15 min at room temperature, residual hydrolysis of 5 μM Z-Phe-Arg-MCA; Ki from Kiapp with KM 1.5, 2.5 and 60 μM for cruzipain, cathepsin L and papain; methods: RB buffer (50 mM Na2PO4, pH 6.5, 200 mM NaCl, 5 mM EDTA, 2.5 mM DTT), 25 °C; footnote of Table 2: 50 mM Na2HPO4, 100 mM NaCl, 5 mM …
- Condition details: both partners purified
Lab note - Ki converted to log10 from values in nM.

Solved entries:
Binder: chagasin T31A/T32A double mutant (natural protein, pQE30 construct as m1; also called pGL1258; source: E. coli M15/pRep4, purified (Ni metal chelate column, HQ ion exchange)) MSHKVTKAHNGATLTVAVGELVEIQLPSNPAAGFAWYFEGGTKESPNESMFTVENKYFPPDSKLLGAGGTEHFHVTVKAAGTHAVNLTYMRPWTGPSHDSERFTVYLKAN
Readout number: 0.03
//
Binder: chagasin T31Y (natural protein, pQE30 construct as m1; also called pGL1210; source: E. coli M15/pRep4, purified (Ni metal chelate column, HQ ion exchange)) MSHKVTKAHNGATLTVAVGELVEIQLPSNPYTGFAWYFEGGTKESPNESMFTVENKYFPPDSKLLGAGGTEHFHVTVKAAGTHAVNLTYMRPWTGPSHDSERFTVYLKAN
Readout number: -0.13
//
Binder: chagasin W93A (natural protein, pQE30 construct as m1; also called pGL1199; source: E. coli M15/pRep4, purified (Ni metal chelate column, HQ ion exchange)) MSHKVTKAHNGATLTVAVGELVEIQLPSNPTTGFAWYFEGGTKESPNESMFTVENKYFPPDSKLLGAGGTEHFHVTVKAAGTHAVNLTYMRPATGPSHDSERFTVYLKAN
Readout number: -1.51
//
Binder: chagasin T32S (natural protein, pQE30 construct as m1; also called pGL1195; source: E. coli M15/pRep4, purified (Ni metal chelate column, HQ ion exchange)) MSHKVTKAHNGATLTVAVGELVEIQLPSNPTSGFAWYFEGGTKESPNESMFTVENKYFPPDSKLLGAGGTEHFHVTVKAAGTHAVNLTYMRPWTGPSHDSERFTVYLKAN
Readout number: -1.70
//
Binder: chagasin T32E (natural protein, pQE30 construct as m1; also called pGL1197; source: E. coli M15/pRep4, purified (Ni metal chelate column, HQ ion exchange)) MSHKVTKAHNGATLTVAVGELVEIQLPSNPTEGFAWYFEGGTKESPNESMFTVENKYFPPDSKLLGAGGTEHFHVTVKAAGTHAVNLTYMRPWTGPSHDSERFTVYLKAN
Readout number: -1.96

Need log10(Ki) of chagasin Y89F (natural protein, pQE30 construct as m1; also called pGL1119; source: E. coli M15/pRep4, purified (Ni metal chelate column, HQ ion exchange)) MSHKVTKAHNGATLTVAVGELVEIQLPSNPTTGFAWYFEGGTKESPNESMFTVENKYFPPDSKLLGAGGTEHFHVTVKAAGTHAVNLTFMRPWTGPSHDSERFTVYLKAN , thanks.
-1.70

Need log10(Ki) of chagasin T31V (natural protein, pQE30 construct as m1; also called pGL1298; source: E. coli M15/pRep4, purified (Ni metal chelate column, HQ ion exchange)) MSHKVTKAHNGATLTVAVGELVEIQLPSNPVTGFAWYFEGGTKESPNESMFTVENKYFPPDSKLLGAGGTEHFHVTVKAAGTHAVNLTYMRPWTGPSHDSERFTVYLKAN , thanks.
-1.15

Need log10(Ki) of chagasin T32Y (natural protein, pQE30 construct as m1; also called pGL1198; source: E. coli M15/pRep4, purified (Ni metal chelate column, HQ ion exchange)) MSHKVTKAHNGATLTVAVGELVEIQLPSNPTYGFAWYFEGGTKESPNESMFTVENKYFPPDSKLLGAGGTEHFHVTVKAAGTHAVNLTYMRPWTGPSHDSERFTVYLKAN , thanks.
-1.80

Need log10(Ki) of chagasin P30A (natural protein, pQE30 construct as m1; also called pGL1194; source: E. coli M15/pRep4, purified (Ni metal chelate column, HQ ion exchange)) MSHKVTKAHNGATLTVAVGELVEIQLPSNATTGFAWYFEGGTKESPNESMFTVENKYFPPDSKLLGAGGTEHFHVTVKAAGTHAVNLTYMRPWTGPSHDSERFTVYLKAN , thanks.
-1.70
